Protocol Summary: recombinant UMI read abundance after kanamycin selection (control-corrected) (log10(CPM+1)); higher = more efficient recombination; extreme values may be limits of the assay; sequences stand for … in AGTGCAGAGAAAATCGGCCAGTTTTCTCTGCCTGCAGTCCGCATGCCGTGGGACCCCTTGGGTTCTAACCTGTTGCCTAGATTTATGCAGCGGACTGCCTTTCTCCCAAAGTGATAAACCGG…AGGTTGGTTTCACT; site = the 11-nt donor
Class boundaries, taken from values of recombinant UMI read abundance (log10), are as follows: bucket A = under 0.005, bucket B = from 0.005 up to 1, bucket C = 1 and over

CAGGAATCATGGACCGGTTTTCCCGGTAATCCGTATTTGCG (site AAGGAATCTCG); bucket C
GGTGCAACATGGACCGGTTTTCCCGGTAATCCGTATTTGTA (site GGTCCAACTTA); bucket B
CGGACTCCATGGACCGGTTTTCCCGGTAATCCGTATTTGTT (site CGGACTCCTAA); bucket C

Any idea which band GGTACAACATGGACCGGTTTTCCCGGTAATCCGTATTTGTA (site GGTACAACTTA) is in?
bucket B

Any idea which band GATGTTCCATGGACCGGTTTTCCCGGTAATCCGTATTTGGT (site GGTGTTCCTAC) is in?
bucket A

Any idea which band TTCAGCTCATGGACCGGTTTTCCCGGTAATCCGTATTTGTT (site TTCAGCTCTAA) is in?
bucket A

Any idea which band TAAAGTCCATGGACCGGTTTTCCCGGTAATCCGTATTTGTA (site TATAGTCCTTA) is in?
bucket B

Any idea which band ATAAGGCCATGGACCGGTTTTCCCGGTAATCCGTATTTGAA (site ATAAGGCCTTT) is in?
bucket B

---

Protocol Summary: recombinant UMI read abundance after kanamycin selection (control-corrected) (log10(CPM+1)); higher = more efficient recombination; extreme values may be limits of the assay; sequences stand for … in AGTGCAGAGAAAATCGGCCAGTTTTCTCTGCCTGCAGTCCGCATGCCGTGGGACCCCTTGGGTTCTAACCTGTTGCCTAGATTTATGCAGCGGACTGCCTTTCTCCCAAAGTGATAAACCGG…AGGTTGGTTTCACT; site = the 11-nt donor
Property: recombinant UMI read abundance (log10); scope: individual sequences
Enter a number only.

Worked cases, answers included:
CCTGAACCATGGACCGGTTTTCCCGGTAATCCGTATTTGGT (site CCTGAACCTAC); 0.00702
AGTAAGACATGGACCGGTTTTCCCGGTAATCCGTATTTGCC (site AGGAAGACTTG); 0.00684
CGATCATCATGGACCGGTTTTCCCGGTAATCCGTATTTGCT (site CGATCATCTCC); 0.00455
GTTGTTTCATGGACCGGTTTTCCCGGTAATCCGTATTTGGT (site GTTGTTGCTAC); 0.0146
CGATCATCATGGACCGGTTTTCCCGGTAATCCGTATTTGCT (site CGATCATCTAT); 0
TATTTGACATGGACCGGTTTTCCCGGTAATCCGTATTTGTG (site TATTTGCCTCA); 0.00551

Provide only the value of recorded recombinant UMI read abundance (log10) for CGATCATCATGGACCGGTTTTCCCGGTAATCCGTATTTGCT (site CGATCATCTAA)
0

Provide only the value of recorded recombinant UMI read abundance (log10) for TTCACTTCATGGACCGGTTTTCCCGGTAATCCGTATTTGTG (site TTCACTTCTCA)
0.00654

---

Protocol Summary: recombinant UMI read abundance after kanamycin selection (control-corrected) (log10(CPM+1)); higher = more efficient recombination; extreme values may be limits of the assay; sequences stand for … in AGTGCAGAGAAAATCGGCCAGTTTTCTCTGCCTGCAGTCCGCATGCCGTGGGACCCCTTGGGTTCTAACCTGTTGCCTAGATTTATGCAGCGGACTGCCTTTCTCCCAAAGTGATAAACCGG…AGGTTGGTTTCACT; site = the 11-nt donor
Threshold check on recombinant UMI read abundance (log10): at or above 0.02 gives 1.0, strictly below gives 0.0.

CTTCTCTCATGGACCGGTTTTCCCGGTAATCCGTATTTGTA (site CTTGTCTCTTA); 0.0

Exam item: decide whether the reported recombinant UMI read abundance (log10) for GCGACGCCATGGACCGGTTTTCCCGGTAATCCGTATTTGTA (site GCAACGCCTTA) is at least 0.02.
1.0

Exam item: decide whether the reported recombinant UMI read abundance (log10) for AATGTAACATGGACCGGTTTTCCCGGTAATCCGTATTTGTT (site AATGTAACTAT) is at least 0.02.
1.0

Exam item: decide whether the reported recombinant UMI read abundance (log10) for AGGAAGCCATGGACCGGTTTTCCCGGTAATCCGTATTTGAA (site AGGAAGCCTTT) is at least 0.02.
1.0

Exam item: decide whether the reported recombinant UMI read abundance (log10) for ATCCTAGCATGGACCGGTTTTCCCGGTAATCCGTATTTGTT (site AGCCTAGCTAA) is at least 0.02.
0.0

Exam item: decide whether the reported recombinant UMI read abundance (log10) for GCCACGCCATGGACCGGTTTTCCCGGTAATCCGTATTTGAA (site GCCACGCCTTT) is at least 0.02.
0.0

Exam item: decide whether the reported recombinant UMI read abundance (log10) for AATGCAGCATGGACCGGTTTTCCCGGTAATCCGTATTTGGG (site AATGCAGCTCC) is at least 0.02.
0.0

Exam item: decide whether the reported recombinant UMI read abundance (log10) for AACCTAGCATGGACCGGTTTTCCCGGTAATCCGTATTTGTT (site ATCCTAGCTAA) is at least 0.02.
0.0

---

Protocol Summary: recombinant UMI read abundance after kanamycin selection (control-corrected) (log10(CPM+1)); higher = more efficient recombination; extreme values may be limits of the assay; sequences stand for … in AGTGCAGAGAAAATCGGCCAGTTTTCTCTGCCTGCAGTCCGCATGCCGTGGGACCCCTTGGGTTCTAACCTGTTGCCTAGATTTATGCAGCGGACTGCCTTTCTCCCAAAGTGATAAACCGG…AGGTTGGTTTCACT; site = the 11-nt donor
Readout Kind: recombinant UMI read abundance (log10)
Enter a number only.

Worked cases, answers included:
CCCGGTTCATGGACCGGTTTTCCCGGTAATCCGTATTTGCA (site CCCGGTTCTTG); 1.83
CGGAATGCATGGACCGGTTTTCCCGGTAATCCGTATTTGCA (site CGGAATGCTTG); 2.28
CATAGTCCATGGACCGGTTTTCCCGGTAATCCGTATTTGAA (site CATAGTCCTTT); 0.981

Provide only the value of recorded recombinant UMI read abundance (log10) for CGGGATCCATGGACCGGTTTTCCCGGTAATCCGTATTTGAT (site CGGGAACCTAT)
0.0108

Provide only the value of recorded recombinant UMI read abundance (log10) for GGCTAGACATGGACCGGTTTTCCCGGTAATCCGTATTTGCC (site GGTTAGACTGG)
0

Provide only the value of recorded recombinant UMI read abundance (log10) for CGTTTGGCATGGACCGGTTTTCCCGGTAATCCGTATTTGCT (site CGATTGGCTAG)
0

Provide only the value of recorded recombinant UMI read abundance (log10) for CTTCAATCATGGACCGGTTTTCCCGGTAATCCGTATTTGGA (site CTTCAATCTTC)
1.71

Provide only the value of recorded recombinant UMI read abundance (log10) for CTGGAGTCATGGACCGGTTTTCCCGGTAATCCGTATTTGCC (site CCGGAGTCTGG)
1.26

Provide only the value of recorded recombinant UMI read abundance (log10) for CGTTGAGCATGGACCGGTTTTCCCGGTAATCCGTATTTGCG (site CGTTGAGCTCG)
1.2

Provide only the value of recorded recombinant UMI read abundance (log10) for TTTAGACCATGGACCGGTTTTCCCGGTAATCCGTATTTGTC (site TTTAGACCTGA)
0

Provide only the value of recorded recombinant UMI read abundance (log10) for ACACCAACATGGACCGGTTTTCCCGGTAATCCGTATTTGTC (site ACACGAACTGA)
0

Provide only the value of recorded recombinant UMI read abundance (log10) for ATAAGGGCATGGACCGGTTTTCCCGGTAATCCGTATTTGAC (site ATAAGGACTGT)
2.61

Provide only the value of recorded recombinant UMI read abundance (log10) for GGTCCAACATGGACCGGTTTTCCCGGTAATCCGTATTTGTA (site GGTCCAACTTT)
0.0114

Provide only the value of recorded recombinant UMI read abundance (log10) for ATGCTACCATGGACCGGTTTTCCCGGTAATCCGTATTTGCT (site TTGCTACCTAG)
0

---

Property: recombinant barcode read abundance (log10); scope: individual sequences
Protocol Summary: recombinant barcode read abundance after kanamycin selection (control-corrected) (log10(CPM+1)); higher = more efficient recombination; sequences stand for … in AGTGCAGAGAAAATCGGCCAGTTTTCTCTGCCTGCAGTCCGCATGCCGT…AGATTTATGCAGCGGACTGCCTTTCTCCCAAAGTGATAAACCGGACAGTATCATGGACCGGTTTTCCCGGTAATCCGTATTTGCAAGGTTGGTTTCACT; site = the 11-nt target

Worked cases, answers included:
TAGCCGACTTGGGTTCTAACCTGTTGCCT (site TAGCAGACTAG); 0.181
TCGAATCCTTGGGTTCTAACCTGTTGCCT (site TCGAATCCTAG); 0.173
GATTAGACTTGGGTTCTAACCTGTTGCCT (site AATTAGACTAG); 0.308
CTGTCGACTTGGGTTCTAACCTGTTGCCT (site CTGTCGACTAG); 0.286
TAGGGCACTTGGGTTCTAACCTGTTGCTG (site TAGGGCACTCG); 0.888

Provide only the value of recorded recombinant barcode read abundance (log10) for TAGTTAGCTTGGGTTCTAACCTGTTGCCA (site TAGTTAGCTCG)
0.17

Provide only the value of recorded recombinant barcode read abundance (log10) for GGCAGTTCTTGGGTTCTAACCTGTTGCTT (site GGCAGTTCTAA)
0.0537

Provide only the value of recorded recombinant barcode read abundance (log10) for CGCGTTGCTTGGGTTCTAACCTGTTGCCT (site CGCGTTGCTAG)
0.48

Numbers sourced from the supplement of paper PMC11208160.
